Data origin, for the record: PubChem BioAssay (NCI)

# System: HCC-2998 colon
# procedure-summary: NCI tumour cell line growth inhibition, 48 h
observable: TGI

1. Nn1c(CCCCCCCCc2nnc(COc3c(O)ccc4ccccc34)n2N)nnc1COc1c(O)ccc2ccccc12	> 100 µM
2. Cc1ccccc1OC(C)C(=O)NN1C(=O)CC(=O)N(c2ccc(Cl)cc2)C1=S (stereo unspecified)	71.9 µM
3. C[C@@H](C(=O)Nc1ccc(Cl)cc1)C1CCC(c2ccnc3ccc(F)cc23)CC1 (stereo partly specified)	24.3 µM
4. COc1ccc(-c2cc(=O)c3cc4c(cc3[nH]2)OCO4)c(OC)c1OC	> 100 µM
5. CCOC(=O)c1[nH]cc(C)c1-c1ccn(-c2ccccc2)c1	> 100 µM
6. CNC(=O)OCc1nc(SC2CCCCO2)n(C)c1COC(=O)NC (stereo unspecified)	> 100 µM
7. CCC[C@H]1C(=O)N=C(N)N1C(=O)OCc1ccccc1	> 100 µM
8. ClCCn1c(CCl)nc2ccc(Cl)cc21	3.87 µM
9. O=C1/C(=C/c2ccccc2S)N=C(c2ccccc2)N1c1nc2ccc(Sc3ccccc3)cc2[nH]1	37.6 µM
10. Cc1cn2c(/C=C3/C(=O)Nc4cccc(Cl)c43)c(Cl)nc2s1	76.5 µM
11. O=c1cc(/C=C/c2ccc(O)c(O)c2)oc(/C=C/c2ccc(O)c(O)c2)c1	6.92 µM
12. CCCCCCCCCc1cc(=O)c2ccc(OCc3ccccc3)cc2o1	> 100 µM
13. Nc1ccn(Cc2ccc(C34CC5CC(CC(C5)C3)C4)c(O)c2)c(=O)n1	> 100 µM
14. Cc1ccncc1.[O]=[Ge].[O]=[Ge].[O]=[Ge].[O]=[Ge].[O]=[Ge].[O]=[Ge][OH].[O]=[Ge][OH]	> 100 µM
15. COc1ccc2c(c1)O/C(=C\c1cccc(OCC(=O)Nc3nc4c(s3)CCCC4)c1)C2=O	> 100 µM
16. Cc1nn(C(=O)Cc2ccccc2)c2c1C(c1ccccc1O)SC(N)=N2 (stereo unspecified)	> 100 µM
